Molecular target: T1, PARD3B_1, Q8TEW8
T1 sequence (Q8TEW8 196-299, limits assumed, looked up): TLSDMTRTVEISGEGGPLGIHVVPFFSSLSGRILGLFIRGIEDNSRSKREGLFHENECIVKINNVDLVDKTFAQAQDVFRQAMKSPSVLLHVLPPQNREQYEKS
Experiment: holdup assay
Design: key: below the threshold = too weak to quantify, mostly under pKd 3.1 to 4
Conditions: plain residues with an end cap or a label only (N-terminal biotin on a linker: ahx)
Reported Property: pKd

These solved cases illustrate the format of a correct answer.
Binder	Result
LSDPSVSTVV [GRIN1, Q05586;Q05586-2]	below the threshold
NRKREIFSNF [NHERF2, Q15599]	below the threshold
PSASCAVTAA [PDLIM4, P50479;P50479-2]	below the threshold
ESLLLGPSNF [SHROOM4, Q9ULL8]	below the threshold

Exercise: # pKd lookup, item SDSSGQEYSL [KCTD3, Q9Y597]
Solution: below the threshold
